target: (Homo sapiens, UniProt P43220); test: h-GLP-1 activity assay (cAMP HTRF, HEK293 cells with stable expression of human GLP-1); details: relative EC50, 10 nM human GLP-1 set as 100% response, 30 min at 37° C.
Sequence (P43220 24-463): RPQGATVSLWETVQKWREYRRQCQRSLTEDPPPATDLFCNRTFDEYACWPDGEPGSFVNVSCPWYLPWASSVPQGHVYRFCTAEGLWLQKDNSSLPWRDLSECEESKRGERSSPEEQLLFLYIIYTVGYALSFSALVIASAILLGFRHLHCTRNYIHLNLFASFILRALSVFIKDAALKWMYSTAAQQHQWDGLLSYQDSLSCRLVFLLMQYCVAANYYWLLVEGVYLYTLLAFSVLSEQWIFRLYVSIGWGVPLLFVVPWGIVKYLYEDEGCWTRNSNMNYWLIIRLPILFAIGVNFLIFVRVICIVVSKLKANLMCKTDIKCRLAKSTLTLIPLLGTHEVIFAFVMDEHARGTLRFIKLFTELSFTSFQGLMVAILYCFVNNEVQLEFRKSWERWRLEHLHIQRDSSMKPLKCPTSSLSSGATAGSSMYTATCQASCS
// reported EC50 for each item listed
Test Readout: EC50

compound="Cc1cc(-n2nc3c(c2-n2ccn(-c4ccc5c(cnn5C)c4F)c2=O)[C@H](C)N(C(=O)c2cn4cc([C@@H]5CCOC(C)(C)C5)ccc4c2C2(c4noc(=O)[nH]4)CC2)CC3)cc(C)c1F (single isomer, unassigned)" system_tested="(Homo sapiens, UniProt P43220)" test_readout=EC50 observed="< 20 nM"
compound="Cc1cc(-n2nc3c(c2-n2ccn(-c4ccc5c(cnn5C)c4F)c2=O)[C@H](C)N(C(=O)c2cc4cc(C5CCOC(C)(C)C5)ccc4n2-c2cccc(-c4noc(=O)[nH]4)c2)CC3)cc(C)c1F (mixture of isomers)" system_tested="(Homo sapiens, UniProt P43220)" test_readout=EC50 observed="20 to 100 nM"
compound=Cc1cc(-n2nc3c(c2-n2ccn(-c4ccc5c(cnn5C)c4F)c2=O)[C@H](C)N(C(=O)c2cn4cc(N5CCOC(C)(C)C5)ccc4c2C2(c4noc(=O)[nH]4)CC2)CC3)cc(C)c1F system_tested="(Homo sapiens, UniProt P43220)" test_readout=EC50 observed="< 20 nM"
compound=Cc1cc(-n2nc3c(c2-n2ccn(-c4ccc5c(cnn5C)c4F)c2=O)CN(C(=O)c2cc4cc(C5CCOCC5)ccc4n2-c2ccccc2-c2noc(=O)[nH]2)CC3)cc(C)c1F system_tested="(Homo sapiens, UniProt P43220)" test_readout=EC50 observed="> 100 nM"
compound="C[C@H]1c2c(nn(-c3ccc(F)c(C4CC4)c3)c2-n2ccn(-c3ccc4c(cnn4C)c3F)c2=O)CCN1C(=O)c1cn2nc([C@H]3CCOC(C)(C)C3)ccc2c1C1(c2noc(=O)[nH]2)CC1 (single isomer, unassigned)" system_tested="(Homo sapiens, UniProt P43220)" test_readout=EC50 observed="20 to 100 nM"
